Molecular target: nicotinamide N-methyltransferase (NNMT) (Homo sapiens)
Sequence (P40261 1-264): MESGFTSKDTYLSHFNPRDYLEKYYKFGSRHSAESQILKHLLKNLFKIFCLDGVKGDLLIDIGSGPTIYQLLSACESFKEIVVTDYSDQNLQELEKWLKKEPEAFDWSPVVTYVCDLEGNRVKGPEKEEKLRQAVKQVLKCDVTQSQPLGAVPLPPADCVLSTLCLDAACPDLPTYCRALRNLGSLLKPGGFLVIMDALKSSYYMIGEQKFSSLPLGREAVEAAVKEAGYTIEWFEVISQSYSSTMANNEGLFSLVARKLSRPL
Experimental endpoint: pIC50
One number for each entry, as −log10 of the molar value.

Lookup: Please indicate recorded pIC50 of O=C(OCC(=O)N1CCC[C@H]1C(=O)O)c1ccccc1 measured with nicotinamide N-methyltransferase (NNMT) (Homo sapiens).
Found: 3.75
